test system: NCI-H1755; experiment: relative viability (nuclei count vs DMSO), 5 days (fraction); higher = more cells survive; conditions: first compound 8 µM
Readout Label: relative viability

[
  {
    "Molecule": "O=c1[nH]c2ccccc2n1C1CCN(CCCC(c2ccc(F)cc2)c2ccc(F)cc2)CC1 [Pimozide] + CC(C)C[C@H](NC(=O)[C@H](Cc1ccccc1)NC(=O)c1cnccn1)B(O)O [Bortezomib] (partner 0.002 µM)",
    "Assay System": "NCI-H1755",
    "Reported Result": 0.674
  },
  {
    "Molecule": "O=c1[nH]c2ccccc2n1C1CCN(CCCC(c2ccc(F)cc2)c2ccc(F)cc2)CC1 [Pimozide] + COc1cccc2cc(-c3nc([C@H]4CC[C@H](C(=O)O)CC4)n4ncnc(N)c34)[nH]c12 [OSI-027] (partner 0.5 µM)",
    "Assay System": "NCI-H1755",
    "Reported Result": 0.51
  },
  {
    "Molecule": "O=c1[nH]c2ccccc2n1C1CCN(CCCC(c2ccc(F)cc2)c2ccc(F)cc2)CC1 [Pimozide] + Nc1ncn([C@H]2C[C@H](O)[C@@H](CO)O2)c(=O)n1 [Decitabine] (partner 2 µM)",
    "Assay System": "NCI-H1755",
    "Reported Result": 0.69
  }
]

Data provenance is the supplement of paper PMC10307832.
